- test-method-notes: in vitro
- Type: cell-based
- experimental-conditions: African green monkey
Peptide text beside a SMILES is read from it.
value-kind: GI50 at 48 h

GI50 at 48 h reading for CC[C@H](C)[C@@H]1NC(=O)[C@H](CCN)NC(=O)[C@H](Cc2c[nH]c3ccccc23)NC(=O)[C@@H]2CCCN2C(=O)[C@H]2CCCN2C(=O)[C@H](C)NC(=O)[C@H](CCC(N)=O)NC(=O)[C@H](CC(C)C)NC(=O)[C@H](CCCNC(=N)N)NC(=O)[C@H](CCC(N)=O)NC(=O)[C@H](CC(N)=O)NC(=O)[C@@H](CCCNC(=N)N)NC(=O)[C@H]([C@@H](C)CC)NC(=O)[C@H](CCCNC(=N)N)NC1=O [Example 5] (HELM PEPTIDE1{W.[Dab].I.R.I.[dR].N.Q.R.L.Q.A.[dP].P}$PEPTIDE1,PEPTIDE1,1:R1-14:R2$$$V2.0) : > 50 mg/L
